Entry source: patent US20260242478A1

measured.target: T1, PSMA Fab
T1 construct: also called Anti-PSMA Fab; 006 PSMA Fab
assay.notes: clonal phage ELISA; biotinylated PSMA Fab on neutravidin plate, blocking buffer alone; anti-M13 HRP detection;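 further: crude clonal phage supernatants added without washing to wells pretreated with blocking buffer with or without PSMA antigen, short incubation, then washed before detecting bound phage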
Where no end group is shown, it is not given here.
Catalogue of binders with associated Phage binding ELISA signal, Anti-PSMA Fab
Reply: number alone, nothing else.

These solved cases illustrate the format of a correct answer.
>>> meas_value("ETPRCVPWWMCIDI [Phage-3751]")
1.37
>>> meas_value("VPALCVPNWMCSGL [Phage-3749]")
1.38
>>> meas_value("EEMMCKPDWMCYGF [Phage-3755]")
1.37
>>> meas_value("MEPVCLPEWMCWGF [Phage-3747]")
1.38
>>> meas_value("PGKVCEPIWMCLGF (cysteine pairing not given here; also: displayed on phage as pIII fusion) [Phage-3744]")
1.38

Data point: VMPRCEPIWMCRGF [Phage-3746] ; Phage binding ELISA signal, Anti-PSMA Fab = 1.38

Data point: EQPACVPKWMCIGF [Phage-3750] ; Phage binding ELISA signal, Anti-PSMA Fab = 1.38
